test system: HCT-116; experiment: NCI60 one-dose screen (10 μM), Colon Cancer; assay type: cell-based; settings: Homo sapiens, HCT-116, read-out: Growth percent rate
activity at 10 µM for assorted compounds
Expressed in %, but write only the number.

Example cases with answers are listed next.
Compound | Measurement kind | Reading unit | Measured result
CCC12C=CCN3CCC4(c5ccc(OC)cc5N(C)C4C(O)(C(=O)OC)C1O)C32 (stereo not drawn) | activity at 10 µM | % | 99.2
CCC12C=CCN3CCC4(c5cc(NC(=O)CN6CCN(Cc7ccc(C(F)(F)F)cc7)CC6)c(OC)cc5N(C)C4C(O)(C(=O)OC)C1OC(C)=O)C32 (stereo not drawn) | activity at 10 µM | % | 46.4
CCC12C=CCN3CCC4(c5cc(NC(=O)CN6CCN(Cc7ccc(F)cc7)CC6)c(OC)cc5N(C)C4C(O)(C(=O)OC)C1OC(C)=O)C32 (stereo not drawn) | activity at 10 µM | % | 101
CCC12C=CCN3CC[C@@]4(c5ccc(OC)cc5N(C)[C@H]4[C@@](O)(C(=O)OC)[C@@H]1OC(C)=O)[C@@H]32 (stereo partly drawn) | activity at 10 µM | % | 116
CC[C@]12C=CCN3CC[C@@]4(c5ccc(OC)cc5N(C)[C@H]4[C@@](O)(C(=O)OC)[C@@H]1OC(=O)CCC(=O)N1CCN(C(=O)c4ccco4)CC1)[C@@H]32 | activity at 10 µM | % | 119

Quick check: activity at 10 µM of CC[C@]12C=CCN3CC[C@@]4(c5ccc(OC)cc5N(C)[C@H]4[C@@](O)(C(=O)OC)[C@@H]1OC(=O)CCCN1CCN(C(c4ccc(F)cc4)c4ccc(F)cc4)CC1)[C@@H]32 ?
-98.6

* * *

test system: SNB-75; test: NCI60 one-dose screen (10 μM), CNS Cancer; format: cell-based, human; conditions: Homo sapiens, SNB-75, read-out: Growth percent rate
Measurement kind: activity at 10 µM (%)
Expressed in %, but write only the number.

Example cases with answers are listed next.
Molecule | activity at 10 µM, %
CCC12C=CCN3CCC4(c5cc(NC(=O)CN6CCN(Cc7ccc(F)cc7)CC6)c(OC)cc5N(C)C4C(O)(C(=O)OC)C1OC(C)=O)C32 (stereo not drawn) [Compound 19] | 87.3
CC[C@]12C=CCN3CC[C@@]4(c5ccc(OC)cc5N(C)[C@H]4[C@@](O)(C(=O)OC)[C@@H]1OC(=O)CCC(=O)N1CCN(C(=O)c4ccco4)CC1)[C@@H]32 [Compound 32] | 109
CC[C@]12C=CCN3CC[C@@]4(c5ccc(OC)cc5N(C)[C@H]4[C@@](O)(C(=O)OC)[C@@H]1OC(=O)CCCN1CCN(C(c4ccc(F)cc4)c4ccc(F)cc4)CC1)[C@@H]32 [Compound 25] | -86.4
CCC12C=CCN3CC[C@@]4(c5ccc(OC)cc5N(C)[C@H]4[C@@](O)(C(=O)OC)[C@@H]1OC(C)=O)[C@@H]32 (stereo partly drawn) [Compound 1, vindoline] | 119
CCC12C=CCN3CCC4(c5ccc(OC)cc5N(C)C4C(O)(C(=O)OC)C1O)C32 (stereo not drawn) [Compound 13, 17-desacetylvindoline] | 84.9

Proceeding to the next molecule to report its activity at 10 µM.
Quick check: activity at 10 µM of CCC12C=CCN3CCC4(c5cc(NC(=O)CN6CCN(Cc7ccc(C(F)(F)F)cc7)CC6)c(OC)cc5N(C)C4C(O)(C(=O)OC)C1OC(C)=O)C32 (stereo not drawn) [Compound 18] ?
20.3

* * *

test system: LOX IMVI; assay: NCI60 one-dose screen (10 μM), Melanoma; assay type: cell-based, human; conditions: Homo sapiens, LOX IMVI, read-out: Growth percent rate
Measurement kind: activity at 10 µM (%)
Expressed in %, but write only the number.

Example cases with answers are listed next.
Molecule | activity at 10 µM, %
CCC12C=CCN3CCC4(c5ccc(OC)cc5N(C)C4C(O)(C(=O)OC)C1O)C32 (stereo not drawn) | 97.5
CCC12C=CCN3CC[C@@]4(c5ccc(OC)cc5N(C)[C@H]4[C@@](O)(C(=O)OC)[C@@H]1OC(C)=O)[C@@H]32 (stereo partly drawn) | 95.3
CCC12C=CCN3CCC4(c5cc(NC(=O)CN6CCN(Cc7ccc(F)cc7)CC6)c(OC)cc5N(C)C4C(O)(C(=O)OC)C1OC(C)=O)C32 (stereo not drawn) | 99.1

Quick check: activity at 10 µM of CCC12C=CCN3CCC4(c5cc(NC(=O)CN6CCN(Cc7ccc(C(F)(F)F)cc7)CC6)c(OC)cc5N(C)C4C(O)(C(=O)OC)C1OC(C)=O)C32 (stereo not drawn) ?
58.4

Similarly, CC[C@]12C=CCN3CC[C@@]4(c5ccc(OC)cc5N(C)[C@H]4[C@@](O)(C(=O)OC)[C@@H]1OC(=O)CCCN1CCN(C(c4ccc(F)cc4)c4ccc(F)cc4)CC1)[C@@H]32 ?
-98.8

Similarly, CC[C@]12C=CCN3CC[C@@]4(c5ccc(OC)cc5N(C)[C@H]4[C@@](O)(C(=O)OC)[C@@H]1OC(=O)CCC(=O)N1CCN(C(=O)c4ccco4)CC1)[C@@H]32 ?
97.8

* * *

test system: SK-MEL-5; test: NCI60 five-dose screen, Melanoma; assay type: cell-based; settings: Homo sapiens; SK-MEL-5, Melanoma; five-dose screen; read-out: GI50
We label by threshold. Values of GI50 strictly beneath 2000 nM are 1. Values of 2000 nM and up are 0.

Examples from the recorded data:
Molecule | Category
CC[C@]12C=CCN3CC[C@@]4(c5ccc(OC)cc5N(C)[C@H]4[C@@](O)(C(=O)OC)[C@@H]1OC(=O)CCC(=O)N1CCN(c4ccc(C(F)(F)F)cc4)CC1)[C@@H]32 | 0
CC[C@]12C=CCN3CC[C@@]4(c5ccc(OC)cc5N(C)[C@H]4[C@@](O)(C(=O)OC)[C@@H]1OC(=O)CCCN1CCN(c4ccc(C(F)(F)F)cc4)CC1)[C@@H]32 | 1
CC[C@]12C=CCN3CC[C@@]4(c5ccc(OC)cc5N(C)[C@H]4[C@@](O)(C(=O)OC)[C@@H]1OC(=O)CCCN1CCN(Cc4ccc(F)cc4)CC1)[C@@H]32 | 1
CC[C@]12C=CCN3CC[C@@]4(c5ccc(OC)cc5N(C)[C@H]4[C@@](O)(C(=O)OC)[C@@H]1OC(=O)CCC(=O)N1CCN(C(c4ccc(F)cc4)c4ccc(F)cc4)CC1)[C@@H]32 | 1

Now for a further molecule.
Determine whether this molecule shows GI50 lower than 2000 nM (ties excluded): CCC12C=CCN3CCC4(c5cc(NC(=O)CN6CCN(c7ccc(C(F)(F)F)cc7)CC6)c(OC)cc5N(C)C4C(O)(C(=O)OC)C1OC(C)=O)C32 (centres unmarked)
0

* * *

tested on: HL-60(TB); assay: NCI60 one-dose screen (10 μM), Leukemia; assay type: cell-based; conditions: Homo sapiens; 10 μM; HL-60(TB), Leukemia; read-out: Growth percent rate
We label by threshold. Values of activity at 10 µM strictly beneath 40% are 1.0. Values of 40% and up are 0.0.

Examples from the recorded data:
Molecule | Category
CC[C@]12C=CCN3CC[C@@]4(c5ccc(OC)cc5N(C)[C@H]4[C@@](O)(C(=O)OC)[C@@H]1OC(=O)CCC(=O)N1CCN(C(c4ccc(F)cc4)c4ccc(F)cc4)CC1)[C@@H]32 | 1.0
CCC12C=CCN3CCC4(c5cc(NC(=O)CN6CCN(C(=O)c7ccco7)CC6)c(OC)cc5N(C)C4C(O)(C(=O)OC)C1OC(C)=O)C32 (centres unmarked) | 0.0
CC[C@]12C=CCN3CC[C@@]4(c5ccc(OC)cc5N(C)[C@H]4[C@@](O)(C(=O)OC)[C@@H]1OC(=O)CCC(=O)N1CCN(c4ccc(C(F)(F)F)cc4)CC1)[C@@H]32 | 1.0
CCC12C=CCN3CCC4(c5cc(NC(=O)CN6CCN(C)CC6)c(OC)cc5N(C)C4C(O)(C(=O)OC)C1OC(C)=O)C32 (centres unmarked) | 0.0
CCC12C=CCN3CCC4(c5ccc(OC)cc5N(C)C4C(O)(C(=O)OC)C1OC(=O)CCCBr)C32 (centres unmarked) | 0.0
CCC12C=CCN3CCC4(c5cc(NC(=O)CN6CCN(c7ccc(C(F)(F)F)cc7)CC6)c(OC)cc5N(C)C4C(O)(C(=O)OC)C1OC(C)=O)C32 (centres unmarked) | 1.0
CCC12C=CCN3CCC4(c5cc(NC(=O)CCl)c(OC)cc5N(C)C4C(O)(C(=O)OC)C1OC(C)=O)C32 (centres unmarked) | 1.0
CC[C@]12C=CCN3CC[C@@]4(c5ccc(OC)cc5N(C)[C@H]4[C@@](O)(C(=O)OC)[C@@H]1OC(=O)CCC(=O)N1CCN(C)CC1)[C@@H]32 | 0.0
CC[C@]12C=CCN3CC[C@@]4(c5ccc(OC)cc5N(C)[C@H]4[C@@](O)(C(=O)OC)[C@@H]1OC(=O)CCC(=O)N1CCN(Cc4ccc(C(F)(F)F)cc4)CC1)[C@@H]32 | 1.0
CCC12C=CCN3CCC4(c5cc(NC(=O)CN6CCN(C(c7ccc(F)cc7)c7ccc(F)cc7)CC6)c(OC)cc5N(C)C4C(O)(C(=O)OC)C1OC(C)=O)C32 (centres unmarked) | 1.0

Now for a further molecule.
Determine whether this molecule shows activity at 10 µM lower than 40% (ties excluded): CC[C@]12C=CCN3CC[C@@]4(c5ccc(OC)cc5N(C)[C@H]4[C@@](O)(C(=O)OC)[C@@H]1OC(=O)CCCN1CCN(c4ccc(C(F)(F)F)cc4)CC1)[C@@H]32
1.0
